testTarget: Isocitrate dehydrogenase [NADP] cytoplasmic (Homo sapiens, UniProt O75874, R132H)
Sequence (O75874 2-414 R132H limits assumed): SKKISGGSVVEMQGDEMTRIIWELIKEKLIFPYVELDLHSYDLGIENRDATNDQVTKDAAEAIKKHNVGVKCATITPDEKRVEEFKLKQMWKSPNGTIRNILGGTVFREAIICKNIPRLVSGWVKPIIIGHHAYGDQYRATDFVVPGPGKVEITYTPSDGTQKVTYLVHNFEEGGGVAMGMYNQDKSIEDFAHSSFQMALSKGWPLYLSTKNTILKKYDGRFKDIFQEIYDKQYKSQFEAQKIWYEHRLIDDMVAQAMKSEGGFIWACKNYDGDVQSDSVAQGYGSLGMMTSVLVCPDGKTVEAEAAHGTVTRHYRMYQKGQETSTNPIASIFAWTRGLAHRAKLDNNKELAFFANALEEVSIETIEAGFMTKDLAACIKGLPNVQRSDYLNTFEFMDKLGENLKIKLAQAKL
assayDetails: Inhibition of IDH1 R132H mutant (unknown origin) using alpha-ketoglutarate as substrate after 60 mins by resazurin dye based fluorescence assay
parameterMeasured: pIC50
// pIC50 is dimensionless: -log10 of concentration (M)

N#Cc1ccnc(N2C(=O)CC[C@H]2C(=O)N(c2cncc(F)c2)[C@@]2(C(=O)NC3CC(F)(F)C3)CCc3ccccc32)c1; 7.03
CS(=O)(=O)c1ccnc(N2C(=O)CC[C@H]2C(=O)N(c2cc(F)cc(F)c2)[C@@]2(C(=O)NC3CC(F)(F)C3)CCc3ccccc32)c1; 5.53
N#Cc1ccnc(N2C(=O)CC[C@H]2C(=O)N(c2cccc(F)c2)[C@@]2(C(=O)NC3CC(F)(F)C3)CCc3cccc(F)c32)c1; 7.29
N#Cc1ccnc(N2C(=O)CC[C@H]2C(=O)N(c2ccc(F)c(F)c2)[C@@]2(C(=O)NC3CC(F)(F)C3)CCc3ccccc32)c1; 7.02
N#Cc1ccnc(N2C(=O)CC[C@H]2C(=O)N(c2cccc(F)c2)[C@@]2(C(=O)NC3CC(F)(F)C3)CCc3cc(F)ccc32)c1; 6.97

I have this molecule here, N#Cc1ccnc(N2C(=O)CC[C@H]2C(=O)N(c2cccc(F)c2F)[C@@]2(C(=O)NC3CC(F)(F)C3)CCc3ccccc32)c1 , and I need its recorded pIC50. 6.83

I have this molecule here, N#Cc1ccnc(N2C(=O)CC[C@H]2C(=O)N(c2ccccc2)[C@@]2(C(=O)NC3CC(F)(F)C3)CCc3ccccc32)c1 , and I need its recorded pIC50. 6.59

I have this molecule here, N#Cc1ccnc(N2C(=O)CC[C@H]2C(=O)N(c2cccc(F)c2)[C@@]2(C(=O)NC3CC(F)(F)C3)CCc3ccc(F)cc32)c1 , and I need its recorded pIC50. 6.86

I have this molecule here, N#Cc1ccnc(N2C(=O)CC[C@H]2C(=O)N(c2cccc(F)c2)[C@@]2(C(=O)NC3CC(F)(F)C3)CCc3cccc(Cl)c32)n1 , and I need its recorded pIC50. 7.66

I have this molecule here, N#Cc1ccnc(N2C(=O)CC[C@H]2C(=O)N(c2cncc(F)c2)[C@@]2(C(=O)NC3CC(F)(F)C3)CCCc3ccccc32)c1 , and I need its recorded pIC50. 6.56

I have this molecule here, N#Cc1ccnc(N2C(=O)CC[C@H]2C(=O)N(c2ccc(Cl)c(F)c2)[C@@]2(C(=O)NC3CC(F)(F)C3)CCc3ccccc32)c1 , and I need its recorded pIC50. 6.73

I have this molecule here, N#Cc1ccnc(N2CCC[C@H]2C(=O)N(c2cccc(F)c2)[C@@]2(C(=O)NC3CC(F)(F)C3)CCc3ccccc32)c1 , and I need its recorded pIC50. 6.20

====

testTarget: UniProt:O75874
parameterMeasured: IC50
Reply with the number and its unit after it.

Test system UniProt:O75874; read-out IC50; what value for N#Cc1ccnc(N2C(=O)CC[C@H]2C(=O)N(c2cc(F)cc(F)c2)[C@@]2(C(=O)NC3CC(F)(F)C3)CCc3ccccc32)c1 ? 3.56 µM

====

The reader will find reported IC50 values listed item by item below.
testTarget: Isocitrate dehydrogenase [NADP], mitochondrial (Homo sapiens, UniProt P48735, R140Q)
Sequence (P48735 40-452 R140Q limits assumed): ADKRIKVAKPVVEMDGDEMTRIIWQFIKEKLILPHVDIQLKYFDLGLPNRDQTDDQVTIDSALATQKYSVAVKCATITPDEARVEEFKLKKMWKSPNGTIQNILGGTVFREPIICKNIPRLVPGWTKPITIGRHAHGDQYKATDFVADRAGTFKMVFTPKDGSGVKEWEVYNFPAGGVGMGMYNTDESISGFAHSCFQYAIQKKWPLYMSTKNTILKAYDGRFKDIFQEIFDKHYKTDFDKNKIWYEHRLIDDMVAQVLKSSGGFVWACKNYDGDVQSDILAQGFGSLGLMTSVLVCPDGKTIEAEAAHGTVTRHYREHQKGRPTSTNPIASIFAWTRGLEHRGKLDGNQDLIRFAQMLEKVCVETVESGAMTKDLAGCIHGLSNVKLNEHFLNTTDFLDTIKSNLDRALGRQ
assayDetails: Inhibition of IDH2 R140Q mutant (unknown origin) using alpha-ketoglutarate as substrate pretreated for 60 mins followed by substrate addition measured after 60 mins by resazurin dye based fluorescence assay

N#Cc1ccnc(N2C(=O)CC[C@H]2C(=O)N(c2cccc(F)c2)[C@@]2(C(=O)NC3CC(F)(F)C3)CCc3cc(Cl)ccc32)c1; > 100 nM

We next turn to a different molecule, shown below.
I have this molecule here, N#Cc1ccnc(N2C(=O)CC[C@H]2C(=O)N(c2cc(F)cc(F)c2)[C@@]2(C(=O)NC3CC(F)(F)C3)CCc3ccccc32)c1 , and I need its recorded IC50. > 100 nM

====

The reader will find reported pIC50 values listed item by item below.
testTarget: Isocitrate dehydrogenase [NADP] cytoplasmic (Homo sapiens, UniProt O75874, R132H)
assayDetails: Inhibition of IDH1 R132H mutant (unknown origin) using alpha-ketoglutarate as substrate after 60 mins by resazurin dye based fluorescence assay
// pIC50 is dimensionless: -log10 of concentration (M)

I have this compound here, N#Cc1ccnc(N2C(=O)CC[C@H]2C(=O)N(c2cccc(F)c2)[C@@]2(C(=O)NCC3CC3)CCc3ccccc32)c1 , and I need its recorded pIC50. 6.58

I have this compound here, N#Cc1ccnc(N2C(=O)CC[C@H]2C(=O)N(c2cccc(F)c2)[C@@]2(C(=O)NC3CC(F)(F)C3)CCc3ccccc32)c1 , and I need its recorded pIC50. 7.07

I have this compound here, N#Cc1ccnc(N2C(=O)CC[C@H]2C(=O)N(c2cccc(Cl)c2)[C@@]2(C(=O)NC3CC(F)(F)C3)CCc3ccccc32)c1 , and I need its recorded pIC50. 6.59

I have this compound here, N#Cc1ccnc(N2C(=O)CC[C@H]2C(=O)N(c2cc(F)cc(Cl)c2)[C@@]2(C(=O)NC3CC(F)(F)C3)CCc3ccccc32)c1 , and I need its recorded pIC50. 6.76

====

testTarget: Isocitrate dehydrogenase [NADP] cytoplasmic (Homo sapiens, UniProt O75874, R132H)
assayDetails: Inhibition of IDH1 R132H mutant (unknown origin) using alpha-ketoglutarate as substrate after 60 mins by resazurin dye based fluorescence assay
parameterMeasured: pIC50
// pIC50 is dimensionless: -log10 of concentration (M)

Please review the following examples before continuing.
N#Cc1ccnc(N2C(=O)CC[C@H]2C(=O)N(c2cccc(F)c2)[C@@]2(C(=O)NC3CC(F)(F)C3)CCc3c(F)cccc32)c1; 7.17
N#Cc1ccnc(N2C(=O)CC[C@H]2C(=O)N(c2cc(F)ccc2F)[C@@]2(C(=O)NC3CC(F)(F)C3)CCc3ccccc32)c1; 6.47

We next turn to a different compound, shown below.
I have this compound here, N#Cc1ccnc(N2C(=O)CC[C@H]2C(=O)N(c2cccc(F)c2)[C@@]2(C(=O)NC3CC(F)(F)C3)CCc3cc(Cl)ccc32)c1 , and I need its recorded pIC50. 7.31

====

The reader will find reported pIC50 values listed item by item below.
testTarget: Isocitrate dehydrogenase [NADP] cytoplasmic (Homo sapiens, UniProt O75874, R132C)
Sequence (O75874 2-414 R132C limits assumed): as the sequence (O75874 2-414 R132H limits assumed) above, with H131C counted along it
assayDetails: Inhibition of IDH1 R132C mutant in human HT1080 cells assessed as reduction in 2-hydroxyglutarate production after 48 hrs by LC-MS/MS analysis
// pIC50 is dimensionless: -log10 of concentration (M)

N#Cc1ccnc(N2C(=O)CC[C@H]2C(=O)N(c2cccc(F)c2)[C@@]2(C(=O)NCC3CCC(F)(F)CC3)CCc3ccccc32)c1; 7.82
N#Cc1ccnc(N2C(=O)CC[C@H]2C(=O)N(c2cccc(F)c2)[C@@]2(C(=O)NC3CC(F)(F)C3)CCc3c(Cl)cccc32)c1; 7.68
N#Cc1ccnc(N2C(=O)OC[C@H]2C(=O)N(c2cccc(F)c2)[C@@]2(C(=O)NC3CC(F)(F)C3)CCc3cccc(Cl)c32)c1; 8.05
N#Cc1ccnc(N2C(=O)CC[C@H]2C(=O)N(c2cc(F)cc(F)c2)[C@@]2(C(=O)NC3CC(F)(F)C3)CCc3c(Cl)cccc32)c1; 7.85
N#Cc1ccnc(N2C(=O)CC[C@H]2C(=O)N(c2cccc(F)c2)[C@@]2(C(=O)NC3CC(F)(F)C3)CCc3cc(Cl)ccc32)c1; 8.12
N#Cc1ccnc(N2C(=O)OC[C@H]2C(=O)N(c2cc(F)cc(F)c2)[C@@]2(C(=O)NC3CC(F)(F)C3)CCc3ccccc32)n1; 6.51

We next turn to a different molecule, shown below.
I have this molecule here, N#Cc1ccnc(N2C(=O)CC[C@H]2C(=O)N(c2cccc(F)c2)[C@@]2(C(=O)NC3CC(F)(F)C3)CCc3cccc(Cl)c32)n1 , and I need its recorded pIC50. 7.38

====

assayDetails: Volume of distribution at steady state in ICR mouse at 1 mg/kg, iv or 5 mg/kg, po by HPLC-MS analysis
Assay type: ADME, organism-based
measurementContext: in vivo, read-out: Vdss
The reader will find reported Vd values listed item by item below.
Write down the numeric answer in L and omit the unit.

N#Cc1ccnc(N2C(=O)CC[C@H]2C(=O)N(c2cccc(F)c2)[C@@]2(C(=O)NC3CC(F)(F)C3)CCc3cc(Cl)ccc32)c1; 1.9

We next turn to a different compound, shown below.
I have this compound here, N#Cc1ccnc(N2C(=O)CC[C@H]2C(=O)N(c2cc(F)cc(F)c2)[C@@]2(C(=O)NC3CC(F)(F)C3)CCc3ccccc32)c1 , and I need its recorded Vd. 1

====

assayDetails: Clearance in ICR mouse at 1 mg/kg, iv by HPLC-MS analysis
Format: ADME, organism-based
measurementContext: in vivo
parameterMeasured: clearance (mL/min/kg)
Write down the numeric answer in mL/min/kg and omit the unit.

N#Cc1ccnc(N2C(=O)CC[C@H]2C(=O)N(c2cccc(F)c2)[C@@]2(C(=O)NC3CC(F)(F)C3)CCc3cc(Cl)ccc32)c1; 20

I have this molecule here, N#Cc1ccnc(N2C(=O)CC[C@H]2C(=O)N(c2cc(F)cc(F)c2)[C@@]2(C(=O)NC3CC(F)(F)C3)CCc3ccccc32)c1 , and I need its recorded clearance. 8.33
